Consider the following compounds and their measured TGI readings.
# Test system: SNB-75 CNS
# test name: NCI tumour cell line growth inhibition, 48 h

- compound: "Cc1nc(N)nc(N)c1-c1ccc(Cl)c(Cl)c1"
  TGI: "> 76.4 µM"
- compound: "CC1SC(c2ccccc2)N(CCc2cccs2)C1=O (centres undefined)"
  TGI: "17.8 µM"
- compound: "N=c1oc2cc(O)ccc2cc1C(=O)NCc1ccccc1"
  TGI: "43.8 µM"
- compound: "O=[N+]([O-])C1C2C=CC(C2)[C@H]1c1ccco1 (some centres undefined)"
  TGI: "> 100 µM"
- compound: "O=c1/c(=C/c2ccccc2F)sc2nc3ccccc3n12"
  TGI: "> 100 µM"
- compound: "CC1OC(O[C@@H]2OC=C(C=O)[C@@]3(O)CC[C@H](C)[C@@H]23)C(O)C(O)C1O (some centres undefined)"
  TGI: "> 100 µM"
- compound: "CC#C[C@]1(O)CC[C@H]2[C@@H]3CCC4=CC(=O)CCC4=C3[C@@H](c3ccc4c(c3)OCO4)C[C@@]21C"
  TGI: "521 µM"
- compound: "O=[N+]([O-])c1ccc(-c2nnc(C34CC5CC(CC(C5)C3)C4)o2)cc1"
  TGI: "> 100 µM"
- compound: "COCCN(C(C)=O)C1CCC2(SCCS2)c2[nH]c3ccccc3c21 (centres undefined)"
  TGI: "> 100 µM"
- compound: "O=C1CC(c2ccc(O)cc2)C2(O1)C(=O)OC(C(O)CO)C2O (centres undefined)"
  TGI: "> 100 µM"
- compound: "CCCCCCCCCCC(C(=O)O)C1(C(=O)O)CCC(=O)O1 (centres undefined)"
  TGI: "> 100 µM"
- compound: "COc1ccc2oc(=N)c(C(=O)NCc3ccccc3)cc2c1"
  TGI: "35 µM"
- compound: "O=C(NCCCCCCNC(=O)n1cc(F)c(=O)[nH]c1=O)NCCCOCCOCCOCCOCCOCCOCCOCCOCCOCCOCCOCCOCCOCCOCCOCCOCCOCCOCCOCCOCCOCCCNC(=O)C(O)C(O)C(O)C(O)CO (centres undefined)"
  TGI: "> 100 µM"
- compound: "CN(C)CCNc1c2c(c(NCCN(C)C)c3[nH]ccc13)C(=O)c1ccccc1C2=O"
  TGI: "30.6 µM"
- compound: "Cc1[nH]ccc2c1[nH]c1cc(=O)ccc12"
  TGI: "> 100 µM"
- compound: "CN(C)CCCNC(CC#N)CCC#N (centres undefined)"
  TGI: "> 10 µM"
- compound: "COC12OC3(C4OC41)C(C(=O)O[C@H]3CO[Si](C)(C)C(C)(C)C)C2C(=O)Oc1ccccc1 (some centres undefined)"
  TGI: "> 100 µM"
- compound: "NCCn1c(=O)[nH]c(=O)[nH]c1=S"
  TGI: "> 100 µM"
- compound: "COc1ccc(C2=Nc3ccccc3NC(=O)C2)cc1"
  TGI: "57.3 µM"
- compound: "CC1=Nc2ccccc2S/C1=C(/C)NNC(=O)C(N)=O"
  TGI: "> 100 µM"
- compound: "COc1ccc(OCc2nc3cc(C(F)(F)F)ccc3nc2-c2ccccc2)cc1"
  TGI: "> 100 µM"
- compound: "O=C(O)/C=C\\C(=O)N1C/C(=C\\c2ccccc2Cl)C(=O)/C(=C/c2ccccc2Cl)C1"
  TGI: "14 µM"
- compound: "COC(C(=O)[O][Ge]([CH3])([CH3])[CH3])c1ccccc1 (centres undefined)"
  TGI: "> 100 µM"
- compound: "N#CCc1nc2ccccc2c(=O)[nH]1"
  TGI: "> 100 µM"
- compound: "CCOC(=O)c1nc2ccc(Cl)cc2c2c1Cc1ccccc1-2"
  TGI: "> 100 µM"
- compound: "CCN(CC)CCC(=O)c1ccc(Oc2ccc(Cl)cc2)cc1"
  TGI: "25.5 µM"
- compound: "O=C(CCC(NC(=O)OCc1ccccc1)C(=O)OCc1ccccc1)Nc1ccc(OCc2ccccc2)cc1 (centres undefined)"
  TGI: "> 31.6 µM"
- compound: "COC(=O)C(=O)C1(CCC(C)=O)c2ccccc2-c2c(C)ccc(C)c21 (centres undefined)"
  TGI: "> 100 µM"
- compound: "COc1ccc(-c2c3c(N)nc(-c4ccncc4)nc3nc3c2c(C)nn3-c2ccccc2)cc1"
  TGI: "28.4 µM"
- compound: "CN(CC1(CO)CCC1)c1cc(Cl)nc(N)n1"
  TGI: "> 100 µM"
- compound: "COC(=O)[C@@]1(C)CC[C@]2(C)CC[C@]3(C)C4=CC=C5C(=CC(=O)C(O)=C5C)[C@]4(C)[C@@H](O)C[C@@]3(C)[C@@H]2C1"
  TGI: "26 µM"
- compound: "Cc1cccc2nc3c(C(=O)NCCN(C)C)cccc3cc12"
  TGI: "6.75 µM"
- compound: "O=S(=O)(O)c1ccc(O)c2ncc(Cl)cc12"
  TGI: "> 100 µM"
- compound: "CC#CC#C/C=C1/O[C@]2(CCC(OC(C)=O)CO2)[C@@H]2O[C@H]12 (some centres undefined)"
  TGI: "> 100 µM"
- compound: "CCOC(=O)CSc1nc(N)c2c(-c3ccc(OC)c(OC)c3)c3c(nc2n1)CCCC3"
  TGI: "32.6 µM"
- compound: "C/C(=N/NC(=S)Nc1ccc([N+](=O)[O-])cc1)c1cccc(/C(C)=N\\NC(=S)Nc2ccc([N+](=O)[O-])cc2)n1"
  TGI: "> 44.3 µM"
- compound: "CC(=O)N1C(=O)/C(=C\\C(=O)c2ccc([N+](=O)[O-])cc2)c2ccccc21"
  TGI: "49.6 µM"
- compound: "N=C(N)c1ccc(-c2ccc(-c3cc(Cl)cc(Cl)c3)o2)nc1"
  TGI: "3.15 µM"
- compound: "CCc1nccc2c1nc(-c1nonc1N)n2CC"
  TGI: "> 25 µM"

====

# Test system: HCT-15 colon
# test name: NCI tumour cell line growth inhibition, 48 h
Consider the following molecules and their measured TGI readings.

- molecule: "O=C(N/N=C(/c1ccccc1)C(F)(F)F)c1ccncc1"
  TGI: "> 100 µM"
- molecule: "OC(c1cc(-c2ccccc2)nc2ccc(Cl)cc12)C1CCCCN1 (configuration not stated)"
  TGI: "3.53 µM"
- molecule: "COc1cc(C=C2C(C)=NN(c3cccc(Cl)c3)C23SCC(=O)N3c2nc3ccccc3s2)ccc1O (configuration not stated)"
  TGI: "> 93.6 µM"
- molecule: "COc1ccc(-c2c3c(N)nc(-c4ccncc4)nc3nc3c2c(C)nn3-c2ccccc2)cc1"
  TGI: "> 100 µM"
- molecule: "CCOc1ccc(NC(=O)C(=O)CC(=O)C2=C(C)Nc3ccccc3S2)cc1"
  TGI: "> 50 µM"
- molecule: "CS(=O)(=O)N1CC(CCl)c2ccc([N+](=O)[O-])cc21 (configuration not stated)"
  TGI: "> 100 µM"
- molecule: "O=C(/C=C/c1ccccc1)c1cc(Br)ccc1O"
  TGI: "34.9 µM"
- molecule: "Oc1cccc2ccc(N/N=C/c3cc(CN4CCCCC4)c(O)c4ncccc34)nc12"
  TGI: "1.51 µM"
- molecule: "C=CCOc1ccc(/C(N=Nc2ccc([N+](=O)[O-])cc2)=N/NC(=O)c2ccccc2)cc1OC"
  TGI: "> 100 µM"
- molecule: "Cc1csc(=S)n1OC(=O)NC1CCCCC1"
  TGI: "> 100 µM"
- molecule: "N#Cc1c(N2CCCC2)[nH]c(=O)c(C(c2c(Cl)cccc2Cl)c2c(O)c(C#N)c(N3CCCC3)[nH]c2=O)c1O"
  TGI: "26.9 µM"
- molecule: "O=C1CC(c2ccc(O)cc2)C2(O1)C(=O)OC(C(O)CO)C2O (configuration not stated)"
  TGI: "> 100 µM"
- molecule: "CC1SC2=NC3=C(c4ccccc4C3=O)C(c3ccc(F)cc3)N2C1=O (configuration not stated)"
  TGI: "> 100 µM"
- molecule: "COc1ccc(/C=C(/C#N)C(N)=O)cc1OC"
  TGI: "> 100 µM"
- molecule: "Cc1ccccc1[P+](Cc1ccccc1)(c1ccccc1)c1ccccc1"
  TGI: "> 100 µM"
- molecule: "CN(C)CCCNC(CC#N)CCC#N (configuration not stated)"
  TGI: "> 10 µM"
- molecule: "CCOC(=O)c1c(N2CCCC2)nsc1Nc1ccc(F)cc1"
  TGI: "> 100 µM"
- molecule: "CC#CC#C/C=C1/O[C@]2(CCC(OC(C)=O)CO2)[C@@H]2O[C@H]12 (some centres not stated)"
  TGI: "42.8 µM"
- molecule: "CCC1NC(=O)C1NC(=O)OC (configuration not stated)"
  TGI: "> 100 µM"
- molecule: "COc1ccc(/C=C2\\CCCC3=C2N=C2SC(C)=NN2C3c2ccc(OC)c(OC)c2)cc1OC (configuration not stated)"
  TGI: "19.4 µM"
- molecule: "COC(O)C(=O)c1c2c(cc3c1CC1(Cc4cc5c(cc4C1)CCC5)C3)CCC2 (configuration not stated)"
  TGI: "39.8 µM"
- molecule: "CCOC(=O)N/N=C(/OCC)c1ccccc1"
  TGI: "> 100 µM"
